Assay: Plasma exposure in dogs after oral dosing
Assay type: in vivo, dog
Conditions: beagle, dog, plasma, 1 mg/kg oral, read-out: AUC0–24
Reported Metric: AUC(0-t)
Express the reported value numerically, then name its unit.

Bench note: what AUC(0-t) did COc1ccc(CNC(=O)c2cc(-c3cncc(Cl)c3)cnc2-c2ccccn2)nc1OC show?
3.4 µM·h

---

Collected log10 Kb values appear next to each entry.
Target: OX1R (Oryctolagus cuniculus)
Sequence (G1SPJ3 1-416): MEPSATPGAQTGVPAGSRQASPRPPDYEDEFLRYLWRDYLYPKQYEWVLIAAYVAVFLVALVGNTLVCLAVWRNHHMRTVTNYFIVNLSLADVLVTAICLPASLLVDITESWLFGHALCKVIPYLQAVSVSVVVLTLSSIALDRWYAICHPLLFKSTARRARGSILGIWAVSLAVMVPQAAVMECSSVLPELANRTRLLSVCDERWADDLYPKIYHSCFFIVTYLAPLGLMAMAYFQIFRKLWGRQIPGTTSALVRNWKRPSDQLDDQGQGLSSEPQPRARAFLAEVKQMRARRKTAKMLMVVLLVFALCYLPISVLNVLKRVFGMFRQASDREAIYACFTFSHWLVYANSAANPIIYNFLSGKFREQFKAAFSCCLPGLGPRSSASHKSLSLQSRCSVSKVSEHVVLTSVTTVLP
Assay: Inhibition of orexin-peptide-A-induced calcium mobilization in CHO cells, rabbit OX1R
Format: cell-based
Experimental: MK-1064 was evaluated for its ability to inhibit orexin-peptide-A-induced calcium mobilization in CHO cell lines separately expressing OX1R and OX2R from mice, rats, rabbits, dogs, rhesus monkeys and humans. […]
// do not treat as linear: log10 of Kb, unit µM

Bench note: what log10 Kb did COc1ccc(CNC(=O)c2cc(-c3cncc(C)c3)ncc2-c2ccccc2)nc1OC show?
1.23

---
Bench note: what log10 Kb did COc1ccc(CNC(=O)c2cc(-c3cncc(Cl)c3)cnc2-c2ccccn2)nc1OC show?
0.87

Query COc1ccc(CNC(=O)c2cc(-c3cc(Cl)cc(Cl)c3)cnc2-c2cccnc2)cc1OC next
-0.30

Query COc1ccc(CNC(=O)c2cc(-c3cncc(C)c3)ncc2-c2nccs2)nc1OC next
1.51

Query Cc1ccc(-c2ncccn2)c(C(=O)N2C[C@H](COc3ccc(F)cn3)CC[C@H]2C)c1 next
-1.89
